Listing of recorded IC50 by entry.
biological target: purified human Hsp90; construct: purified human Hsp90 (Stressgen, SPP-770); assay: Hsp90 binding assay: displacement of BODIPY-labeled geldanamycin measured by fluorescence polarization; conditions: BODIPY-GM 10 nM, Hsp90 30 nM, overnight at room temperature; read-out: GM displacement from purified Hsp90 measured by FP IC 50
Kindly answer with a numeric value in nM, unit omitted.

{"Smiles": "Nc1ncnc2c1nc(Sc1cc3occc3cc1Br)n2CCC1CCN(C(=O)CO)CC1", "Value Measured": 45}

Name the recorded IC50 of the item CS(=O)(=O)N1CCC(CCn2c(Sc3cc4c(cc3C#N)OCO4)nc3c(N)ncnc32)CC1 in your answer. 480

Identify measured IC50 associated with Nc1ncnc2c1nc(Sc1cc3c(cc1Br)OCO3)n2CCn1c(=O)n2n(c1=O)CC=CC2 1800

For the molecule C[C@H](N)C(=O)N1CCC(Cn2c(Sc3cc4c(cc3Br)OCCO4)nc3c(N)ncnc32)CC1 , report IC50. 500

# return recorded IC50 for entry Nc1ncnc2c1nc(Sc1cc3c(cc1Br)OCO3)n2CCC1CCNCC1 470

Name the recorded IC50 of the item CO[C@@H](C)C(=O)N1CCC(CCn2c(Sc3cc4c(cc3C#N)OCCO4)nc3c(N)ncnc32)CC1 in your answer. 320

Could you please provide reported IC50 for C[C@H](O)C(=O)N1CCC(CCn2c(Sc3cc4c(cc3C#N)OCO4)nc3c(N)ncnc32)CC1 ? Thanks! 700

Provide only the value of recorded IC50 for Nc1ncnc2c1nc(Sc1cc3c(cc1Br)OCCO3)n2CCC1CCN(C2=NC(=O)CC2)CC1 105

Output IC50 of CCCC(=O)N1CCC(CCn2c(Sc3cc4c(cc3Br)OCCO4)nc3c(N)ncnc32)CC1 100

Answer with the recorded IC50 of C[C@H](O)C(=O)N1CCC(CCn2c(Sc3cc4c(cc3Br)CCO4)nc3c(N)ncnc32)CC1 only. 35

Return reported IC50. Input molecule: CS(=O)(=O)N1CCC(CCn2c(Sc3cc4c(cc3C#N)OCCO4)nc3c(N)ncnc32)CC1 550

// fetch IC50 given entry CC(=O)O[C@@H](C)C(=O)N1CCC(CCn2c(Sc3cc4occc4cc3Br)nc3c(N)ncnc32)CC1 110

Tell me measured IC50 for N#Cc1cc2c(cc1Sc1nc3c(N)ncnc3n1CCC1CCN(C(=O)CO)CC1)OCO2 please. 350

Please give the documented IC50 of CCOC(=O)c1cc2c(cc1Sc1nc3c(N)ncnc3n1CCC1CCN(C=O)CC1)OCO2 68

---

system: purified human Hsp90; construct: purified human Hsp90 (Stressgen, SPP-770); test: Hsp90 binding assay: displacement of BODIPY-labeled geldanamycin measured by fluorescence polarization; details: 5 μM compound; BODIPY-GM 10 nM, Hsp90 30 nM, overnight at room temperature
Rule: GM displacement from purified Hsp90 measured by FP Inhibition by 5 μM compd. (%) under 20% gives 0.0, otherwise 1.0.

These recorded examples may help you get a feel for the data.
{"Molecule": "CCN(CC)C(=O)CN1CCC(CCn2cnc(N)c3nc(Sc4cc5c(cc4Br)OCCO5)nc2-3)CC1", "Label Class": 1.0}
{"Molecule": "Nc1ncn(CCn2c(=O)n3n(c2=O)CC=CC3)c2nc(Sc3cc4c(cc3Br)OCO4)nc1-2", "Label Class": 1.0}
{"Molecule": "CCc1ccc(Br)c(Sc2nc3c(N)ncn(CCC4CCN(C(=O)[C@H](C)O)CC4)c-3n2)c1", "Label Class": 0.0}
{"Molecule": "CC(=O)N1CCC(CCn2cnc(N)c3nc(Sc4cc5c(cc4Cl)OCCO5)nc2-3)CC1", "Label Class": 1.0}
{"Molecule": "CC(C)(O)C(=O)N1CCC(CCn2cnc(N)c3nc(Sc4cc5c(cc4Br)OCCO5)nc2-3)CC1", "Label Class": 1.0}

Is GM displacement from purified Hsp90 measured by FP Inhibition by 5 μM compd. (%) for Nc1ncn(CCC2CCN(C=O)CC2)c2nc(Sc3cc4c(cc3Br)CCC4)nc1-2 at or above 20%? 1.0

Is it the case that CS(=O)(=O)N1CCCC(CCn2cnc(N)c3nc(Sc4cc5c(cc4Br)OCCO5)nc2-3)C1 (centres unmarked) has GM displacement from purified Hsp90 measured by FP Inhibition by 5 μM compd. (%) reaching or exceeding 20%? 1.0

Test whether the molecule CCCC(=O)N1CCC(CCn2cnc(N)c3nc(Sc4cc5c(cc4Br)OCCO5)nc2-3)CC1 records GM displacement from purified Hsp90 measured by FP Inhibition by 5 μM compd. (%) of 20% or higher. 0.0

GM displacement from purified Hsp90 measured by FP Inhibition by 5 μM compd. (%) >= 20% for Cc1cc(Br)c(Sc2nc3c(N)ncn(CCC4CCN(C(=O)[C@H](C)O)CC4)c-3n2)cc1C ? 1.0

Is reported GM displacement from purified Hsp90 measured by FP Inhibition by 5 μM compd. (%) greater than or equal to 20% here: CC(=O)N1CCC(CCn2cnc(N)c3nc(Sc4cc5c(cc4[N+](=O)[O-])OCCO5)nc2-3)CC1 1.0

Does N#Cc1cc2c(cc1Sc1nc3c(N)ncn(CCn4c(=O)n5n(c4=O)CC=CC5)c-3n1)OCO2 have a reported GM displacement from purified Hsp90 measured by FP Inhibition by 5 μM compd. (%) of at least 20%? 1.0

---

Target: purified human Hsp90
Construct: purified human Hsp90 (Stressgen, SPP-770)
Test: Hsp90 binding assay: displacement of BODIPY-labeled geldanamycin measured by fluorescence polarization
Details: BODIPY-GM 10 nM, Hsp90 30 nM, overnight at room temperature; read-out: GM displacement from purified Hsp90 measured by FP IC 50
Protocol: Binding of the Example Compounds to purified Hsp90 was assayed by measuring the displacement of BODIPY-labeled geldanamycin (BODIPY-GM) from purified human Hsp90, using a fluorescence polarization assay adapted from Kim et al. (J. Biomolec. Screening, 9(5):375-381 (2004)). […] Parallel and perpendicular fluorescence measurements were read (Analyst AD plate reader; LJL BioSystems, Middletown, Conn.) with excitation/emission wavelengths of 485/530 nm. […]
The entries below are paired with their reported pIC50.
In plain terms, pIC50 is the concentration in mol/L turned into minus its base-10 logarithm.

Identify pIC50 associated with the molecule CCCN1CCCCC1CCn1c(Sc2cc3c(cc2C#N)OCO3)nc2c(N)ncnc21 (stereo not drawn) [compound 50] 5.92

Complete the entry with pIC50 for Nc1ncnc2c1nc(Sc1cc3c(cc1F)OCCO3)n2CCC1CCN(C=O)CC1 [Example Compound 183] 5.54

Specify pIC50 for Nc1ncnc2c1nc(Sc1cc3c(cc1Br)OCO3)n2CCC1CCC(F)(F)CC1 [Example Compound 190] and stop. 6.19

Could you please provide reported pIC50 for Nc1ncnc2c1nc(Sc1cc3c(cc1Cl)OCO3)n2CCC1CCN(C(=O)CO)CC1 [Example Compound 205] ? Thanks! 6.30

Give recorded pIC50. CC(C)(C)[C@H](O)C(=O)N1CCC(CCn2c(Sc3cc4c(cc3Br)OCCO4)nc3c(N)ncnc32)CC1 [compound 106] 7.15

For the molecule CC(=O)NC(CCn1c(Sc2cc3c(cc2Br)OCO3)nc2c(N)ncnc21)C1CC1 (stereo not drawn) [compound 137] , give its measured pIC50 value. 6.62

---

biological target: purified human Hsp90; construct: purified human Hsp90 (Stressgen, SPP-770); assay: Hsp90 binding assay: displacement of BODIPY-labeled geldanamycin measured by fluorescence polarization; conditions: BODIPY-GM 10 nM, Hsp90 30 nM, overnight at room temperature; read-out: GM displacement from purified Hsp90 measured by FP IC 50
Assay Metric: IC50 (nM)
API: value field is a number in nM; no unit string.

{"Compound": "Nc1ncnc2c1nc(Sc1cc(O)c(O)cc1Br)n2CCC1CCN(C=O)CC1 [Example Compound 145]", "Assayed Target": "purified human Hsp90", "Assay Metric": "IC50", "Unit Abbrev": "nM", "Value Measured": 600}
{"Compound": "CCN(CC)C(=O)CN1CCC(CCn2c(Sc3cc4c(cc3Br)OCCO4)nc3c(N)ncnc32)CC1 [compound 27]", "Assayed Target": "purified human Hsp90", "Assay Metric": "IC50", "Unit Abbrev": "nM", "Value Measured": 110}
{"Compound": "COCC(=O)N1CCC(CCn2c(Sc3cc4c(cc3C#N)OCCO4)nc3c(N)ncnc32)CC1 [compound 45]", "Assayed Target": "purified human Hsp90", "Assay Metric": "IC50", "Unit Abbrev": "nM", "Value Measured": 220}

Output measured IC50 for this item: NC(=O)C[C@H](N)C(=O)N1CCC(CCn2c(Sc3cc4c(cc3Br)OCO4)nc3c(N)ncnc32)CC1 [Example Compound 152] 114

Tell me measured IC50 for CC(=O)NC(CCn1c(Sc2cc3c(cc2Br)OCCO3)nc2c(N)ncnc21)C1CC1 (stereo not drawn) [compound 139] please. 240

Input CN(C)C(=O)c1cc2c(cc1Sc1nc3c(N)ncnc3n1CCC1CCN(C=O)CC1)OCO2 [Example Compound 193] , output reported IC50. 4300
